- assayNotes: in vivo
- measurementParameters: mouse, mice, oral, read-out: median lethal dose
propertyLabel: LD50

- cpdSmiles: "CCOCc1nc2nccnc2c(=O)[nH]1"
  endpointResult: "> 2000 mg/kg"

----------
- assayNotes: in vivo
- measurementParameters: rat, rats, oral, read-out: median lethal dose

- cpdSmiles: "CCOCc1nc2nccnc2c(=O)[nH]1"
  LD50: "> 2000 mg/kg"

----------
- assayNotes: in vivo
- measurementParameters: mouse, mice, intravenous, read-out: median lethal dose
propertyLabel: LD50

- cpdSmiles: "CCOCc1nc2nccnc2c(=O)[nH]1"
  endpointResult: "> 1600 mg/kg"

----------
- Tested on: passive cutaneous anaphylaxis
- assayNotes: passive cutaneous anaphylaxis (PCA) test
- Type: in vivo
- measurementParameters: Rattus norvegicus, ip; rats, intraperitoneal, 5 min before antigen; dose decreasing by 50% the skin area occupied by the dye
propertyLabel: ED50 (mg/kg)

- compound: "CCCOCc1nc2nccnc2c(=O)[nH]1 [Example 4, 2-Propoxymethyl-4(3H)-pteridinone]"
  measuredOn: "passive cutaneous anaphylaxis"
  endpointResult: 9
- compound: "CC(C)OCc1nc2nccnc2c(=O)[nH]1 [Example 13, 2-Isopropoxymethyl-4(3H)-pteridinone]"
  measuredOn: "passive cutaneous anaphylaxis"
  endpointResult: 14
- compound: "COCc1nc2nccnc2c(=O)[nH]1 [Example 3, 2-Methoxymethyl-4(3H)-pteridinone]"
  measuredOn: "passive cutaneous anaphylaxis"
  endpointResult: 14
- compound: "COCOCc1nc2nccnc2c(=O)[nH]1 [Example 12, 2-Methoxymethoxymethyl-4(3H)-pteridinone]"
  measuredOn: "passive cutaneous anaphylaxis"
  endpointResult: 18
